system under test: UniProtKB Q7Z3E1
experiment description: PARP7 biochemical assay
test parameters: read-out: PARP7 IC50
pIC50: −log10 of the molar value.
measurement label: pIC50

# annotated cases, reported pIC50 shown
# molecule, pIC50
rows = [
    ("CC#Cc1ccc2c(=O)[nH]nc(C(C)N(C)CCC(=O)N3CCN(c4ncc(C(F)(F)F)cn4)CC3)c2c1 (stereo not shown)", "> 7.30"),
    ("CN(C)CC#Cc1ccc2c(=O)[nH]nc(Cc3ccc(F)c(C(=O)N4CCN(c5ncc(C(F)(F)F)cn5)CC4)c3)c2c1", "> 7.30"),
    ("N#Cc1ccc(N2CCN(C(=O)c3cncc(Cc4n[nH]c(=O)c5ccc(OC6CCC6)cc45)c3)CC2)nc1", "> 7.30"),
    ("C/C(=C\\C(F)(F)F)c1ccc2c(=O)[nH]nc(Cc3ccc(F)c(C(=O)N4CCN(c5ccc(C#N)cn5)CC4)c3)c2c1", "> 7.30"),
    ("N#Cc1ccc(N2CCN(C(=O)c3cc(Cc4n[nH]c(=O)c5ccc(S(=O)(=O)C6CCC6)cc45)ccc3F)CC2)nc1", "6.30 to 7.00"),
]

Just so you know, measured pIC50 for O=C(c1cccc(Cc2n[nH]c(=O)c3ccc(OC4CCC4)cc23)c1Cl)N1CCN(c2ncc(C(F)(F)F)cn2)CC1 came out at 7.00 to 7.30

Just so you know, measured pIC50 for Cc1cnc(N(C)C2CN(C(=O)c3cc(Cc4n[nH]c(=O)c5ccc(OC6CCC6)cc45)ccc3F)C2)n1C came out at 6.30 to 7.00

###

system under test: PARP2 (Homo sapiens (Human), UniProt Q9UGN5)
Sequence (Q9UGN5 whole entry): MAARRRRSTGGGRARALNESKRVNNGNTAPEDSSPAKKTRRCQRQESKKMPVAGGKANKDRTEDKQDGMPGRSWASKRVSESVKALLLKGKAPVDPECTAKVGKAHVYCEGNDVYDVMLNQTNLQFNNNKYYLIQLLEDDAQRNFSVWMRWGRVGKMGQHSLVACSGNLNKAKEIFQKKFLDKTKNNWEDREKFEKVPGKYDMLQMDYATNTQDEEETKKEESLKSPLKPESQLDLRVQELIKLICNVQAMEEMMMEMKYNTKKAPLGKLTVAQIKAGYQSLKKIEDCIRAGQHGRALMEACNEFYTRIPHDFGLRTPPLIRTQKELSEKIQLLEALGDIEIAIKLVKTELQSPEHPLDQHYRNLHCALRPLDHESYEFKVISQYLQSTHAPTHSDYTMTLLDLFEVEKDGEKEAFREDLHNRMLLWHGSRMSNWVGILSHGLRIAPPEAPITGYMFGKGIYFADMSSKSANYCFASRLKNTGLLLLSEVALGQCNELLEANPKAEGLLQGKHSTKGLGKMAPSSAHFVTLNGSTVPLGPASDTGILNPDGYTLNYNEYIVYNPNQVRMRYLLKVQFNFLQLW
experiment description: PASTA biochemical PARP screening assay, PARP2
measurement label: pIC50
Recall that pIC50 is obtained by taking minus log10 of the concentration measured in molar.

Bench note, PARP2 (Homo sapiens (Human), UniProt Q9UGN5): CC#Cc1ccc2c(=O)[nH]nc(Cc3ccc(F)c(C(=O)N4CCN(c5ccc(C#N)cn5)CC4)c3)c2c1 [Example 10] , pIC50 reads 5.99

###

system under test: PARP11 (Homo sapiens (Human), UniProt Q9NR21)
Sequence (Q9NR21 whole entry, species assumed): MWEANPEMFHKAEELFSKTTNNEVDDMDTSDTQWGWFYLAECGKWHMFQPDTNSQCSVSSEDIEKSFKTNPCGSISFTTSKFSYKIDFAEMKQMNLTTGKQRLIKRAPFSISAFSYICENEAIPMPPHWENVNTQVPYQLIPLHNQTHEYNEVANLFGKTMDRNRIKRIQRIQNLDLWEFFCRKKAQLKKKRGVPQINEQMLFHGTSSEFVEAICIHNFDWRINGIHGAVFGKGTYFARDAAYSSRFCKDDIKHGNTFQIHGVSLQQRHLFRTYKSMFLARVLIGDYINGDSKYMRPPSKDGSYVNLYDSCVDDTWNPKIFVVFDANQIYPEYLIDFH
measurement label: IC50 (nM)
The answer is to be given in nM; state only the numeric part.

Just so you know, measured IC50 for CC#Cc1ccc2c(=O)[nH]nc(Cc3ccc(F)c(C(=O)N4CCN(c5ccc(C#N)cn5)CC4)c3)c2c1 [Example 10] came out at 134

###

system under test: His-GST-PARP7 (Homo sapiens (Human), UniProt Q7Z3E1)
Sequence (Q7Z3E1 whole entry): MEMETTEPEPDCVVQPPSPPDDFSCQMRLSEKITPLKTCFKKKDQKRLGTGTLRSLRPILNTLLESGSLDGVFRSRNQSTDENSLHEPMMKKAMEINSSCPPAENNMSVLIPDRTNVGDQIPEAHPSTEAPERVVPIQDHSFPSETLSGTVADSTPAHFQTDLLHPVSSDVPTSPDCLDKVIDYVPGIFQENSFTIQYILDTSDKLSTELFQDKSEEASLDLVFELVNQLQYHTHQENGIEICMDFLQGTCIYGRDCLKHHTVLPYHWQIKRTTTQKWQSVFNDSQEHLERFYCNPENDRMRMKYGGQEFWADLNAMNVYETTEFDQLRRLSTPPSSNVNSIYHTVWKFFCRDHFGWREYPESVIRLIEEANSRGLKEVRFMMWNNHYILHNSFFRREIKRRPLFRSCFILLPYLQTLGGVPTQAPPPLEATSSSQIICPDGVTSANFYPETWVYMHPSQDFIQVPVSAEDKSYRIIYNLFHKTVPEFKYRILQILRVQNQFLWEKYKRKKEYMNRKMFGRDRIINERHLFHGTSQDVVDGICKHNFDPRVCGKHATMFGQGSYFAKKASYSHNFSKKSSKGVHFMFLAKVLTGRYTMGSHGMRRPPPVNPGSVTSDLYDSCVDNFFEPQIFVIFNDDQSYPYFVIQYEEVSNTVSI
experiment description: PARP7 biochemical assay
test parameters: read-out: PARP7 IC50
pIC50: −log10 of the molar value.
measurement label: pIC50

# annotated cases, reported pIC50 shown
# smiles notation, pIC50
records = [
    ("N#Cc1ccc(N2CCN(C(=O)c3cc(Cc4n[nH]c(=O)c5ccc(N6CC7(CC(O)C7)C6)cc45)ccc3F)CC2)nc1", "> 7.30"),
    ("O=C(c1cc(Cc2n[nH]c(=O)c3ccc(C#CC(F)(F)F)cc23)ccc1F)N1CCN(c2ncc(C(F)(F)F)cn2)CC1", "6.30 to 7.00"),
    ("O=C(c1cc(Cc2n[nH]c(=O)c3ccc(OC4CCC4)cc23)ccc1F)N1[C@@H]2CC[C@H]1CN(c1ncc(C(F)(F)F)cn1)C2", "> 7.30"),
    ("CC#Cc1ccc2c(=O)[nH]nc(Cc3ccc(F)c(C(=O)N4CC5(C4)CN(c4ccc(C#N)cn4)C5)c3)c2c1", "> 7.30"),
    ("CC#Cc1ccc2c(=O)[nH]nc(Cc3ccc(F)c(C(=O)N4CCn5c(nnc5-c5ccccc5CC)C4)c3)c2c1", "6.30 to 7.00"),
    ("C#CCNc1ccc2c(=O)[nH]nc(Cc3ccc(F)c(C(=O)N4CCN(c5ccc(C#N)cn5)CC4)c3)c2c1", "> 7.30"),
]

// moving on: another record for pIC50
Just so you know, measured pIC50 for CC#Cc1ccc2c(=O)[nH]nc(Cc3ccc(F)c(C(=O)N4C[C@@H]5C[C@H]4CN5c4ccc(C#N)cn4)c3)c2c1 came out at 5.70 to 6.30

###

system under test: UniProt:Q7Z3E1
experiment description: PARP7 biochemical assay
test parameters: read-out: PARP7 IC50
measurement label: IC50

Just so you know, measured IC50 for N#Cc1ccc(N2CCN(C(=O)c3cc(Br)cc(Cc4n[nH]c(=O)c5ccc(OC6CCC6)cc45)c3)CC2)nc1 came out at < 0.05 µM

Just so you know, measured IC50 for N#Cc1ccc(N2CCN(C(=O)c3cc(Cc4n[nH]c(=O)c5ccc(OC6CCC6)cc45)ccc3F)CC2)nc1 came out at < 0.05 µM

Just so you know, measured IC50 for CN(c1cncc(C#N)n1)C1CN(C(=O)c2cc(Cc3n[nH]c(=O)c4ccc(OC5CCC5)cc34)ccc2F)C1 came out at 0.1 to 0.5 µM

Just so you know, measured IC50 for C#CCNc1ccc2c(=O)[nH]nc(Cc3ccc(F)c(C(=O)N4CCn5c(nnc5C(F)(F)F)C4)c3)c2c1 came out at 0.1 to 0.5 µM

Just so you know, measured IC50 for O=C(c1cc(Cc2n[nH]c(=O)c3ccc(OC4CCC4)cc23)ccc1F)N1C[C@H]2CC[C@@H](C1)N2c1ncc(C(F)(F)F)cn1 came out at < 0.05 µM

Just so you know, measured IC50 for N#Cc1ccc(N2CCN(C(=O)c3ccnc(Cc4n[nH]c(=O)c5ccc(OC6CCC6)cc45)c3)CC2)nc1 came out at < 0.05 µM

###

system under test: PARP16 (Homo sapiens (Human), UniProt Q8N5Y8)
Sequence (Q8N5Y8 whole entry, species assumed): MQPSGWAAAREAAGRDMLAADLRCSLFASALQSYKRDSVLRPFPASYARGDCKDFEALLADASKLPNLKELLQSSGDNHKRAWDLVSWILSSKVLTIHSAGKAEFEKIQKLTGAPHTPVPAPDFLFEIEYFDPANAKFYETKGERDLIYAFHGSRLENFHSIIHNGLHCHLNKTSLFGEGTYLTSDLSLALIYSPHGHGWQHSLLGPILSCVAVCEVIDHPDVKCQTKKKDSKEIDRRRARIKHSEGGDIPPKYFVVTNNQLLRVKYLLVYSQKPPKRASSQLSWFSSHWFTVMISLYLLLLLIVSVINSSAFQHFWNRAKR
measurement label: IC50 (nM)
The answer is to be given in nM; state only the numeric part.

Bench note, PARP16 (Homo sapiens (Human), UniProt Q8N5Y8): CC#Cc1ccc2c(=O)[nH]nc(Cc3ccc(F)c(C(=O)N4CCN(c5ccc(C#N)cn5)CC4)c3)c2c1 , IC50 reads 1060

###

system under test: His-GST-PARP7 (Homo sapiens (Human), UniProt Q7Z3E1)
experiment description: PARP7 biochemical assay
test parameters: read-out: PARP7 IC50
pIC50: −log10 of the molar value.
Listed next: entries and their corresponding pIC50.

# compound, pIC50
records = [
    ("CC#Cc1ccc2c(=O)[nH]nc(Cc3ccc(F)c(C(=O)N4CCN(C(=O)CCC(F)(F)F)CC4)c3)c2c1", "> 7.30"),
    ("CC#Cc1ccc2c(=O)[nH]nc(Cc3ccc(F)c(C(=O)N4CC(N(C)c5ccc(C#N)cn5)C4)c3)c2c1 [Example 70, 2,2,2-trifluoroacetate]", "< 5.70"),
]

// moving on: another record for pIC50
Just so you know, measured pIC50 for CNC(=O)c1ccnc(N(C)C2CN(C(=O)c3cc(Cc4n[nH]c(=O)c5ccc(OC6CCC6)cc45)ccc3F)C2)n1 came out at 6.30 to 7.00

###

system under test: UniProt:Q7Z3E1
experiment description: PARP7 biochemical assay
test parameters: read-out: PARP7 IC50
pIC50: −log10 of the molar value.
measurement label: pIC50

# annotated cases, reported pIC50 shown
# smiles notation, measurement label, observed
data = [
    ("O=C(c1cc(Cc2n[nH]c(=O)c3ccc(OC4CCC4)cc23)ccc1F)N1CCN(c2cc(C(F)(F)F)ccn2)CC1", "pIC50", "> 7.30"),
    ("O=C(c1cccc(Cc2n[nH]c(=O)c3ccc(OC4CCC4)cc23)c1)N1CCN(c2ncc(C(F)(F)F)cn2)CC1", "pIC50", "> 7.30"),
    ("COc1nnc2n1CCN(C(=O)c1cc(Cc3n[nH]c(=O)c4ccc(OC5CCC5)cc34)ccc1F)C2", "pIC50", "> 7.30"),
    ("CC#Cc1ccc2c(=O)[nH]nc(Cc3ccc(F)c(C(=O)N(C)C4CN(c5ccc(C#N)cn5)C4)c3)c2c1", "pIC50", "5.70 to 6.30"),
    ("CC#Cc1ccc2c(=O)[nH]nc(Cc3ccc(F)c(C(=O)N4CCN(c5ncc(C)n5C)CC4)c3)c2c1", "pIC50", "6.30 to 7.00"),
]

Just so you know, measured pIC50 for Cc1cc(N2CCN(C(=O)c3cc(Cc4n[nH]c(=O)c5ccc(OC6CCC6)cc45)ccc3F)CC2)ncc1C#N came out at > 7.30

Just so you know, measured pIC50 for N#Cc1cnc(N2CCN(C(=O)c3cc(Cc4n[nH]c(=O)c5ccc(OC6CCC6)cc45)ccc3F)CC2)nc1 came out at > 7.30

###

system under test: UniProt Q7Z3E1
experiment description: PARP7 biochemical assay
test parameters: read-out: PARP7 IC50
pIC50: −log10 of the molar value.
Listed next: entries and their corresponding pIC50.

# annotated cases, reported pIC50 shown
# compound, system under test, pIC50
records = [
    ("N#Cc1ccc(N2CCN(C(=O)c3cc(Cc4n[nH]c(=O)c5ccc(N6CC7(CCC7)C6)cc45)ccc3F)CC2)nc1", "UniProt Q7Z3E1", "> 7.30"),
    ("N#Cc1ccc(N2CCN(C(=O)c3cc(Cc4n[nH]c(=O)c5ccc(Oc6ccccn6)cc45)ccc3F)CC2)nc1", "UniProt Q7Z3E1", "> 7.30"),
    ("O=C(c1cc(Cc2n[nH]c(=O)c3ccc(OC4CCC4)cc23)ccc1F)N1CCn2c(nnc2C2CC2)C1", "UniProt Q7Z3E1", "> 7.30"),
    ("N#Cc1ccc(N2CCN(c3noc4cc(Cc5n[nH]c(=O)c6ccc(OC7CCC7)cc56)ccc34)CC2)nc1", "UniProt Q7Z3E1", "< 5.70"),
    ("O=C(c1cc(Cc2n[nH]c(=O)c3ccc(OC4CCC4)cc23)ccc1F)N1CCCN(c2ncc(C(F)(F)F)cn2)CC1", "UniProt Q7Z3E1", "> 7.30"),
]

Bench note, UniProt Q7Z3E1: CN(C(=O)C1CC1)C1CN(C(=O)c2cc(Cc3n[nH]c(=O)c4ccc(OC5CCC5)cc34)ccc2F)C1 , pIC50 reads 5.70 to 6.30

Bench note, UniProt Q7Z3E1: CC#Cc1ccc2c(=O)[nH]nc(Cc3ccc4c(c3)C(=O)N(CCN(CC)c3ccc(C#N)cn3)C4)c2c1 , pIC50 reads < 5.70

Bench note, UniProt Q7Z3E1: Cc1cc(C#N)cnc1N1CCN(C(=O)c2cc(Cc3n[nH]c(=O)c4ccc(OC5CCC5)cc34)ccc2F)CC1 , pIC50 reads > 7.30

Bench note, UniProt Q7Z3E1: N#Cc1ccc(N2CCN(C(=O)c3cc(Cc4n[nH]c(=O)c5ccc(NC6CCC6)cc45)ccc3F)CC2)nc1 , pIC50 reads > 7.30

Bench note, UniProt Q7Z3E1: N#Cc1ccc(N2CCN(C(=O)c3cc(Cc4n[nH]c(=O)c5ccc(OC6CCC6)cc45)ccn3)CC2)nc1 , pIC50 reads > 7.30

Bench note, UniProt Q7Z3E1: O=C(c1cc(Cc2n[nH]c(=O)c3ccc(OC4CCC4)cc23)ccc1F)N1CCN(c2cnc(C(F)(F)F)cn2)CC1 , pIC50 reads > 7.30

Bench note, UniProt Q7Z3E1: CC#Cc1ccc2c(=O)[nH]nc(Cc3ccc(F)c(C(=O)N4CCN(C(=O)CC#N)CC4)c3)c2c1 , pIC50 reads > 7.30

Bench note, UniProt Q7Z3E1: C#CCN(C)c1ccc2c(=O)[nH]nc(Cc3ccc(F)c(C(=O)N4CCN(c5ccc(C#N)cn5)CC4)c3)c2c1 , pIC50 reads > 7.30

Bench note, UniProt Q7Z3E1: O=C(C1CC1)N1CCN(c2noc3c(Cc4n[nH]c(=O)c5ccc(OC6CCC6)cc45)cccc23)CC1 , pIC50 reads 6.30 to 7.00

Bench note, UniProt Q7Z3E1: CC#Cc1ccc2c(=O)[nH]nc(Cc3ccc(F)c(C(=O)N4C[C@H]5C[C@@H]4CN5c4ccc(C#N)cn4)c3)c2c1 , pIC50 reads > 7.30

Bench note, UniProt Q7Z3E1: N#Cc1ccc(N2CCN(C(=O)c3cc(Cc4n[nH]c(=O)c5ccc(NC6CC6)cc45)ccc3F)CC2)nc1 , pIC50 reads > 7.30

Bench note, UniProt Q7Z3E1: O=C(c1cc(Cc2n[nH]c(=O)c3ccc(OC4CCC4)cc23)ccc1F)N1CC(Nc2ncc(C(F)(F)F)cn2)C1 , pIC50 reads 7.00 to 7.30

Bench note, UniProt Q7Z3E1: O=C(c1cc(Cc2n[nH]c(=O)c3ccc(OC4CCC4)cc23)ccc1F)N1CCN(c2ncc(C(F)(F)F)cn2)CC(F)(F)C1 , pIC50 reads > 7.30

Bench note, UniProt Q7Z3E1: N#Cc1ccc(N2CCCN(C(=O)c3cc(Cc4n[nH]c(=O)c5ccc(OC6CCC6)cc45)ccc3F)CC2)nc1 , pIC50 reads > 7.30

Bench note, UniProt Q7Z3E1: N#Cc1ccc(N2CCN(c3noc4c(Cc5n[nH]c(=O)c6ccc(OC7CCC7)cc56)cccc34)CC2)nc1 , pIC50 reads 6.30 to 7.00

Bench note, UniProt Q7Z3E1: CC#Cc1ccc2c(=O)[nH]nc(Cc3ccc(F)c(C(=O)N(C)Cc4nnc(C(F)(F)F)o4)c3)c2c1 , pIC50 reads 6.30 to 7.00
